- System: EKVX NSCLC
- TEST DESCRIPTION: NCI-60 one-dose screen, 48 h (100 = growth as untreated, 0 = no growth, -100 = all killed)
- EXPERIMENTAL CONTEXT: 10 µM unless noted
About 83,000 compounds went through this panel and 20% of them were active in at least one assay; those are over-represented in the sample as a whole.
The threshold is 80%. Values of growth beneath it are tagged condition met; values meeting or exceeding it are tagged condition not met.

INSERT INTO results (molecule, class_assignment) VALUES
  ('Cc1cccc(/C=C/C(=O)Nc2ncc(Cc3cccc(C)c3)s2)c1', 'condition met'),
  ('Cc1nn(-c2ccccc2)c2ncnc(N/N=C/c3ccccc3)c12', 'condition not met'),
  ('O=C1[C@H]2Cc3c([nH]c4ccccc34)[C@@H](c3ccc(Br)cc3)N2C(=O)CN1C1CCN(CC2CCCCC2)CC1', 'condition met'),
  ('N#Cc1cnc2ccc(-c3cnc4[nH]ncc4c3)cc2c1N1CCc2cc(F)c(Cl)cc21', 'condition met'),
  ('O=C(CN1CCN(c2cc(=O)[nH]c3ccc(F)cc23)CC1)Nc1ccc(Cl)cc1', 'condition met'),
  ('CC1(C)CC[C@]2(C(=O)O)CC[C@]3(C)C(=CC[C@@H]4[C@@]5(C)CC/C(=N\OCCC#N)C(C)(C)[C@@H]5CC[C@]43C)[C@@H]2C1', 'condition met'),
  ('O=S(=O)(Nc1cccc2ccccc12)c1ccc(-c2cnc(C3CC3)o2)cc1', 'condition met'),
  ('CC(c1ccccc1)N1CSc2nc3ncncc3n2C1 (stereo not given)', 'condition not met'),
  ('COc1c(N2CC3CCCNC3C2)c(F)cc2c(=O)c(C(=O)N/N=C/c3ccccc3)cn(C3CC3)c12 (stereo not given)', 'condition not met'),
  ('c1cn2c(ccc3nc(-c4cn[nH]c4)c4c(c32)CCCC4)n1', 'condition not met'),
  ('CCO/C=N/C1=C(C#N)C(c2ccc(Cl)cc2)c2sc3c(C)cccc3c2O1 (stereo not given)', 'condition met'),
  ('CN1CCN(c2ccc(/C=N/n3cnc4oc(-c5ccccc5)cc4c3=N)cc2)CC1', 'condition not met'),
  ('CCCn1cnc2c(c1=N)C(c1ccc(Cl)cc1)c1sc3c(C)cccc3c1O2 (stereo not given)', 'condition met'),
  ('CN1CCN(c2nc(-c3csc(-c4ccccc4)n3)cc3ccccc23)CC1', 'condition met'),
  ('C=CCOc1cccc(/C=C2\SC(=S)N(C3CC(=O)N(c4ccc(Br)cc4)C3=O)C2=O)c1 (stereo not given)', 'condition not met'),
  ('CC(C)(C)c1ccc(C(=O)Nc2nc3ccc(O)cc3s2)cc1', 'condition met'),
  ('CC(C)(O)c1cncc(-c2ccc3ncnc(NCc4ccccc4)c3c2)c1', 'condition met'),
  ('C=C(C)[C@@H]1CC[C@]2(COCCCNCCC#N)CC[C@]3(C)[C@H](CC[C@@H]4[C@@]5(C)CC[C@H](OCCCNCCC#N)C(C)(C)[C@@H]5CC[C@]43C)[C@@H]12', 'condition met'),
  ('O=C(NNc1nc2cc(F)ccc2n2c(CN3CC4CNCC4C3)ccc12)c1cnccn1 (stereo not given)', 'condition met'),
  ('C#Cc1nc(C(C)=O)cs1', 'condition not met'),
  ('CCCCCc1ccc(S(=O)(=O)Nc2cc(-c3csc(NC(=O)CN4CCN(C)CC4)n3)ccc2OC)cc1', 'condition met'),
  ('Cc1cc(C)cc(C(=O)Nc2cccc(C#Cc3cccc4[nH]nc(N)c34)c2)c1', 'condition not met'),
  ('NC/C(=C/F)COc1ccc2nc(NCc3cccnc3)oc2c1', 'condition met'),
  ('CS(=O)(=O)Nc1cc(-c2ccc3ncc(C#N)c(NCc4ccccc4)c3c2)cnc1Cl', 'condition met'),
  ('CC1(C)[C@@H](O)CC[C@]2(C)[C@H]3CC[C@@H]4[C@H]5[C@H](C(=O)/C=C\c6ccccn6)CC[C@]5(O)CC[C@@]4(C)[C@]3(C)CC[C@@H]12', 'condition met'),
  ('COc1ccccc1NC1=C(Cl)C(=O)c2nc(C)ccc2C1=O', 'condition met'),
  ('COc1ccc(-c2nc(C(Cl)Cl)nc3cc(-c4ccccc4)nn23)cc1', 'condition met'),
  ('C#CCNC1CCC(c2csc(C#C)n2)=C1C (stereo not given)', 'condition met'),
  ('Cc1ccc(-n2cc(/C=N/NC(=O)c3nc(N)n[nH]3)c(-c3ccc(S(C)(=O)=O)cc3)n2)cc1', 'condition not met'),
  ('CCCCCCCn1cc2c(NCCc3ccccc3)ncnc2n1', 'condition not met'),
  ('CC(=O)N1C(=S)NC(=O)C1CC(C)C (stereo not given)', 'condition not met'),
  ('CCOc1cccc(-c2nc3sccn3c2-c2ccnc(S(C)(=O)=O)n2)c1', 'condition not met'),
  ('O=C(c1ccc(O)cc1)[C@@H]1CN[C@@]2(C(=O)Nc3ccccc32)[C@H]1c1ccc(F)cc1', 'condition not met'),
  ('CC(=O)O[C@@H]1C(=O)N(c2cnccn2)[C@H]1c1ccccc1[N+](=O)[O-]', 'condition met'),
  ('CCn1c2ccccc2c2cc(-n3nncc3-c3ccccc3)ccc21', 'condition met'),
  ('C#Cc1nc(/C=C/C(=O)c2nccn2C)cs1', 'condition met'),
  ('c1ccc(C(c2nc3ncncc3[nH]2)N2CSc3nc4ccccc4n3C2)cc1 (stereo not given)', 'condition not met'),
  ('CC(=O)c1cc(C(=O)c2ccc(Br)cc2)n2cc(C)cc(C)c12', 'condition met'),
  ('Cc1ccc(-c2nnc(SCc3ccc(O)c4ncccc34)o2)cc1', 'condition met');

Source of measurements: PubChem BioAssay (NCI)
